measurement_protocol: Primary qHTS to identify inhibitors of SARS-CoV-2 cell entry (AID 1645846); also: nearly all actives have a fitted effect of over 45% in size
stated_conditions: SARS-CoV-2 pseudovirus cell entry assay, luminescence; at 57.1 µM (top of the series) unless noted
Records with an inconclusive call do not appear.

molecule | activity change, negative = inhibition [% [at 27.1 µM]]
N#Cc1ccc(C2CCCc3cncn32)cc1 (centres undefined) | -13.4
CN(C)C(=O)NC1CCC(CCN2CCN(c3cccc(Cl)c3Cl)CC2)CC1 (centres undefined) | -20.6

----------
measurement_protocol: Cell Viability - LYMP2-003 (AID 965);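 also: cells exposed to compounds for 24 h before reading; nearly all actives have a fitted effect of over 50% in size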
stated_conditions: LYMP2-003 lymphoblastoid cell viability; series mostly up to 92.2 µM
Results filed as inconclusive are left out. Calls of active or inactive are those of the source. The call rests on the fitted dose curve; in most records, active means well fitted cell-killing curve with a large enough effect; inconclusive means small, poorly fitted or top-dose-only effect, or effect the other way; inactive means flat fitted curve, though single readings scatter.
Possible outcomes: active, inactive

compound | discrete_label
COc1ccc(C=O)cc1OC | inactive
O=[N+]([O-])c1ccc(Cl)c(Cl)c1 | inactive
CCCSC(=O)Cl | inactive
CC(C)(C)OOC(C)(C)C | inactive
O=C(Cl)C(Cl)(Cl)Cl | inactive
C[C@]12CC[C@H]3[C@@H](CCC4=CC(=O)CC[C@@]43C)[C@@H]1CC[C@@H]2O | inactive
C[C@H]1CCCC(=O)CCC/C=C/c2cc(O)cc(O)c2C(=O)O1 | inactive
ClCBr | inactive
CC(=O)[O-].CC(=O)[O-].O.O.O.[Pb+2] | inactive
ClC1=C(Cl)C2(Cl)C3C4CC(C5OC45)C3C1(Cl)C2(Cl)Cl (configuration not stated) | active
COP(=S)(OC)Oc1ccc([N+](=O)[O-])cc1 | inactive
C=CC1CC=CCC1 (configuration not stated) | inactive
